Origin of the recorded values: the supplement of paper PMC7125110

self-cleavage kobs at 40 uM GlcN6P values, listed per item
B1: glmS ribozyme (parent)
chain: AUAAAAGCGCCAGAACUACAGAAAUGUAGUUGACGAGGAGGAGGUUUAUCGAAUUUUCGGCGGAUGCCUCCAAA

- Variants of: B1
- measurementNotes: self-cleavage kobs at 40 uM GlcN6P; higher = faster cleavage; RNA array
- conditionLabel: with glucosamine-6-phosphate
This sample holds only a part of the variants without activity.
measuredMetric: self-cleavage kobs at 40 uM GlcN6P

[[record]]
variantid = "C34U G40C G51U C61A G63U"
measuredmetric = "self-cleavage kobs at 40 uM GlcN6P"
assayvalue = "< 1e-05 s⁻¹"

[[record]]
variantid = "A42G U57A"
measuredmetric = "self-cleavage kobs at 40 uM GlcN6P"
assayvalue = "< 1e-05 s⁻¹"

[[record]]
variantid = "G29A A53U"
measuredmetric = "self-cleavage kobs at 40 uM GlcN6P"
assayvalue = "9.5e-05 s⁻¹"

[[record]]
variantid = "U56A U65A"
measuredmetric = "self-cleavage kobs at 40 uM GlcN6P"
assayvalue = "4.51e-05 s⁻¹"

[[record]]
variantid = "U30G G32A G35C A42C"
measuredmetric = "self-cleavage kobs at 40 uM GlcN6P"
assayvalue = "< 1e-05 s⁻¹"

[[record]]
variantid = "A12C A24U A52C C67A"
measuredmetric = "self-cleavage kobs at 40 uM GlcN6P"
assayvalue = "< 1e-05 s⁻¹"

[[record]]
variantid = "U47C G66A"
measuredmetric = "self-cleavage kobs at 40 uM GlcN6P"
assayvalue = "0.000111 s⁻¹"

[[record]]
variantid = "U31G U49G C50G"
measuredmetric = "self-cleavage kobs at 40 uM GlcN6P"
assayvalue = "< 1e-05 s⁻¹"

[[record]]
variantid = "U31A U45G"
measuredmetric = "self-cleavage kobs at 40 uM GlcN6P"
assayvalue = "7.39e-05 s⁻¹"

[[record]]
variantid = "G9C U54A U56G G66A"
measuredmetric = "self-cleavage kobs at 40 uM GlcN6P"
assayvalue = "< 1e-05 s⁻¹"

[[record]]
variantid = "A33C G59C"
measuredmetric = "self-cleavage kobs at 40 uM GlcN6P"
assayvalue = "< 1e-05 s⁻¹"

[[record]]
variantid = "U31G A39C G44C"
measuredmetric = "self-cleavage kobs at 40 uM GlcN6P"
assayvalue = "< 1e-05 s⁻¹"

[[record]]
variantid = "C8U C11U C58A C67G"
measuredmetric = "self-cleavage kobs at 40 uM GlcN6P"
assayvalue = "0.00018 s⁻¹"

[[record]]
variantid = "A48G C68G"
measuredmetric = "self-cleavage kobs at 40 uM GlcN6P"
assayvalue = "4.65e-05 s⁻¹"

[[record]]
variantid = "A14U G38C"
measuredmetric = "self-cleavage kobs at 40 uM GlcN6P"
assayvalue = "< 1e-05 s⁻¹"

[[record]]
variantid = "G32C G44C"
measuredmetric = "self-cleavage kobs at 40 uM GlcN6P"
assayvalue = "< 1e-05 s⁻¹"

[[record]]
variantid = "U57G G59C"
measuredmetric = "self-cleavage kobs at 40 uM GlcN6P"
assayvalue = "< 1e-05 s⁻¹"

[[record]]
variantid = "C10A G40A"
measuredmetric = "self-cleavage kobs at 40 uM GlcN6P"
assayvalue = "< 1e-05 s⁻¹"

[[record]]
variantid = "G63U G66U"
measuredmetric = "self-cleavage kobs at 40 uM GlcN6P"
assayvalue = "< 1e-05 s⁻¹"

[[record]]
variantid = "C10U C34G G41U A52U C58A G66A C71A"
measuredmetric = "self-cleavage kobs at 40 uM GlcN6P"
assayvalue = "< 1e-05 s⁻¹"

[[record]]
variantid = "U54G U55G"
measuredmetric = "self-cleavage kobs at 40 uM GlcN6P"
assayvalue = "0.00108 s⁻¹"

[[record]]
variantid = "C8A G29U G60U"
measuredmetric = "self-cleavage kobs at 40 uM GlcN6P"
assayvalue = "< 1e-05 s⁻¹"

